From: patent US6905706B2

Assay: Effect of co-administered extracts on the pharmacokinetics of theophylline in rats
Conditions: male, Wistar, rat, in vivo, Theophylline concentration in serum after 480 minutes, Group 2 (rats treated with CRE)
REPORTED_PROPERTY: concentration at 480 min

Entry under review: Cn1c(=O)c2[nH]cnc2n(C)c1=O [Theophylline, 1,3-dimethylxantin] . Reported concentration at 480 min?
~32000 ng/mL

----------
Assay: Effect of co-administered extracts on the pharmacokinetics of theophylline in rats
Details: male, Wistar, rat, in vivo, Concentration of Theophylline in Rat Serum, Mean, Group 2 (CRE pretreatment 3 days); aminophylline 240 mg/kg p.o.; 60 min; mean n=6
REPORTED_PROPERTY: concentration at 60 min (µg/mL)
Form entry: value (µg/mL) — number only.

Entry under review: Cn1c(=O)c2[nH]cnc2n(C)c1=O [Theophylline, 1,3-dimethylxantin] . Reported concentration at 60 min?
142
